Recorded GI50 values for a group of compounds are listed next.
Test system: NCI-H226
Assay: NCI tumour cell line growth inhibition, 48 h
Activity calls are given as the source filed them. Rule as the data show it: active = GI50 up to about 1.1 µM and inactive = higher.

Observe how each entry below is paired with its result.
O=C(O)c1ccccn1
> 100 µM (inactive)
CC1(C)OC(=O)C(=C2CC(c3ccccc3)c3ccccc32)C(=O)O1 (stereo unspecified)
> 100 µM (inactive)
CCOC(=O)/C=C1\CCCC12OCCO2
> 100 µM (inactive)
COC(=O)c1ccc(C)cc1CC1Cc2cc(C)ccc2C1=O (stereo unspecified)
> 100 µM (inactive)
C[C@@H]1O[C@@H]2OCC[C@@H]2C2=C1C(=O)c1ccccc1C2=O
26.7 µM (inactive)

Req: Name the recorded GI50 of O=C(Nc1ccccc1)c1ccc(Cl)c([N+](=O)[O-])c1 , assay system NCI-H226.
Resp: 25.2 µM (inactive)

Req: Name the recorded GI50 of CC(=O)N(CN1C(=O)CCC1C(=O)O)c1ccccc1 (stereo unspecified) , assay system NCI-H226.
Resp: > 52.7 µM (inactive)

Req: Name the recorded GI50 of Cc1cc(=O)oc2cc(O)c(CN(C)CC(=O)O)cc12 , assay system NCI-H226.
Resp: > 100 µM (inactive)

Req: Name the recorded GI50 of CCOc1ccc(C(C)c2cc3c(cc2OC)OCO3)cc1 (stereo unspecified) , assay system NCI-H226.
Resp: 0.207 µM (active)

Req: Name the recorded GI50 of NC(Cc1c[nH]c2ccccc12)P(=O)(O)O (stereo unspecified) , assay system NCI-H226.
Resp: > 100 µM (inactive)

Req: Name the recorded GI50 of c1cc2c(cc1NC1=NCCO1)CCCC2 , assay system NCI-H226.
Resp: 3.37 µM (inactive)

Req: Name the recorded GI50 of C[N+](C)(C)CC1CCC(C[N+](C)(C)C)C1=O (stereo unspecified) , assay system NCI-H226.
Resp: 12.9 µM (inactive)

----------
System: NCI-H23
Test: NCI tumour cell line growth inhibition, 48 h
Calls of active or inactive are those of the source. Rule as the data show it: active = GI50 up to about 1.1 µM and inactive = higher.
Parameter call: string, one of yes (active), no (inactive)

Worked examples follow.
O=C(/C=C/c1ccc(Cl)c(Cl)c1)Oc1ccc(/C=C2\CCCCC2=O)cc1
no
CCOc1ccc(C(C)c2cc3c(cc2OC)OCO3)cc1 (stereo not given)
yes
[O-][S+](Nc1ccccc1)c1ccc(-c2ccccc2)cc1 (stereo not given)
no

Req: What did the test return for COc1cc(C(C)c2cc3c(cc2OCCNC(=O)COc2cc4c(cc2C(C)c2cc(OC)c(OC)c(OC)c2)OCO4)OCO3)cc(OC)c1OC (stereo not given) ?
Resp: no

Req: What did the test return for CC(=O)ON(C(C)=O)c1ccc(-c2nc3ccccc3s2)cc1 ?
Resp: no

----------
Recorded GI50 values for a group of compounds are listed next.
Test system: HOP-92
Assay: NCI tumour cell line growth inhibition, 48 h
The source made the active and inactive calls. No stated cut-off is given here; in the data, active = GI50 up to about 1.1 µM and inactive = higher.

Observe how each entry below is paired with its result.
Cc1cn(C2CC(N(C)C)C(CO)O2)c(=O)[nH]c1=O (stereo not given)
> 100 µM (inactive)
CC(CO)CCNc1ncnc2c1ncn2CCC#N (stereo not given)
> 100 µM (inactive)
Cc1ccc(/N=N/NCCCCN/N=N/c2ccc(C)cc2)cc1
25.3 µM (inactive)
C[C@]12CCC3[C@@H](CC[C@@H]4c5nonc5CC[C@]34C)C1CCC(=O)N2 (stereo not given in full)
95.7 µM (inactive)
CCOC(=O)Nc1cc(NC(/C=N/NC(C)=O)C(=O)OCC)c(OC)cc1NC(C)=O (stereo not given)
> 100 µM (inactive)
CCOP(=O)(OCC)C(NC(=O)C(C(F)(F)F)C(F)(F)F)c1ccccc1 (stereo not given)
> 100 µM (inactive)

Req: Look up and report measured GI50 for this entry: C/C=C(\C)C(O)C(C)C(O)C/C=C(C)/C=C(\C)C/C(C)=C/C/C=C(\C)C(O)C(C)c1ccc(CCC)c(=O)o1 (stereo not given)
Resp: 16.6 µM (inactive)

Req: Look up and report measured GI50 for this entry: O=c1nc2sc3ccc4ccccc4c3n2nc1-c1ccccc1
Resp: 21.4 µM (inactive)

Req: Look up and report measured GI50 for this entry: Cc1cc(=O)oc2cc(O)c(CN(C)CC(=O)O)cc12
Resp: > 100 µM (inactive)

Req: Look up and report measured GI50 for this entry: CC(=O)OC(Cn1cncn1)(Cn1cncn1)c1ccc(Cl)cc1Cl
Resp: > 100 µM (inactive)

----------
Test system: CCRF-CEM
Assay: NCI tumour cell line growth inhibition, 48 h
Active and inactive are the calls of the source. Rule as the data show it: active = GI50 up to about 1.1 µM and inactive = higher.
Parameter call: string, one of 1 = active, 0 = inactive

Worked examples follow.
CC(C)(C)NCC(COc1ccc([N+](=O)[O-])cc1)OP(c1ccccc1)c1ccccc1 (centres undefined)
0
CC(=O)NNc1nc(C)c(C(=O)NNC(=O)C(=O)Nc2ccc(Cl)c([N+](=O)[O-])c2)s1
0
CC(=O)OC(Cn1cncn1)(Cn1cncn1)c1ccc(Cl)cc1Cl
0

Req: What did the test return for O=C(/C=C\c1cccc2ccccc12)c1ccc(Cl)cc1Cl ?
Resp: 0

Req: What did the test return for CC(=O)Nc1ccc(S(=O)(=O)[N-]C2C(=O)c3ccccc3C(=O)C2[n+]2ccccc2)cc1 (centres undefined) ?
Resp: 0

Req: What did the test return for COc1ccc2nc(-c3ccccc3)cc(OCC(=O)O)c2c1 ?
Resp: 0

Req: What did the test return for COc1ccccc1N1CCN(CCCCNC(=O)c2ccc([N+](=O)[O-])o2)CC1 ?
Resp: 0

Req: What did the test return for C=C(C)C(=O)O[C@H]1CC2(CO)O[C@@H]2CC/C(COC(C)=O)=C/C2OC(=O)C(=C)[C@@H]21 (some centres undefined) ?
Resp: 0

----------
Tested on: U-251
Experiment: NCI tumour cell line growth inhibition, 48 h
Activity calls are given as the source filed them. No stated cut-off is given here; in the data, active = GI50 up to about 1.1 µM and inactive = higher.
Parameter call: string, one of TRUE for active, FALSE for inactive

Worked examples follow.
O=C(O)c1nc2ccccc2nc1Nc1ccc(Cl)c(Cl)c1
FALSE
Cc1ccccc1NC(=O)C(=O)Cc1nc2ccccc2s1
FALSE
CC(=O)O[C@]1(C)OC(=O)[C@@H](CC(C)C)N1[N+](=O)[O-]
FALSE
CC1C(=O)C(C)C(c2ccccc2)N(N=O)C1c1ccccc1 (configuration not stated)
FALSE
CN1CCN(CCCN2c3ccccc3Sc3ccc(C(F)(F)F)cc32)CC1
FALSE
CSC(=S)N/N=C/c1nccc2ccccc12
TRUE

Req: What did the test return for [O-][S+]1Nc2cccc(C(F)(F)F)c2S1 (configuration not stated) ?
Resp: FALSE

Req: What did the test return for CCOC(=O)c1c(O)cc(=O)[nH]c1N1CCOCC1 ?
Resp: FALSE

Req: What did the test return for COc1c2ccccc2c(OC)c2nc(C)ccc12 ?
Resp: FALSE

----------
Test system: A498
Test: NCI tumour cell line growth inhibition, 48 h
Active and inactive are the calls of the source. No stated cut-off is given here; in the data, active = GI50 up to about 1.1 µM and inactive = higher.
Parameter call: string, one of active, inactive

Worked examples follow.
COC(=O)NC(Cc1ccccc1)NC(C)=O (stereo unspecified)
inactive
COc1ccc(CC2C(=O)NC(C)C(=O)N(C)C3Cc4ccc(cc4)Oc4cc(ccc4O)CC(C(=O)NC(C)C(=O)NC(C)C(=O)N2C)N(C)C3=O)cc1 (stereo unspecified)
active

Req: What did the test return for CN(C)c1ccc(/C=N\NC(=O)c2ccccc2Nc2ccccc2C(=O)N/N=C/c2ccc(N(C)C)cc2)cc1 ?
Resp: inactive

Req: What did the test return for NC(CCP(=O)(O)O)C(=O)O (stereo unspecified) ?
Resp: inactive

Req: What did the test return for C=C1C(=O)OC2/C=C(\C)C(=O)CC3OC(C)(C)OC3(C)CC(OC(=O)/C(C)=C/C)C12 (stereo unspecified) ?
Resp: inactive

Req: What did the test return for COc1ccc(C2S/C(=C\c3cccc([N+](=O)[O-])c3)C(=O)N2NC(=O)Cc2ccccc2)cc1 (stereo unspecified) ?
Resp: inactive

----------
System: NCI-H23
Test: NCI tumour cell line growth inhibition, 48 h
Active and inactive are the calls of the source. No stated cut-off is given here; in the data, active = GI50 up to about 1.1 µM and inactive = higher.
Recorded GI50 values for a group of compounds are listed next.

Cc1c(/N=N/c2ccc(Cl)cc2)c(-c2ccccc2)n(C2OC(CO)C(O)C(O)C2O)c(=S)c1C#N (stereo not given)
10.7 µM (inactive)
Oc1ccc(-c2nn3c(CCCCCCCCc4nnc5sc(-c6ccc(O)cc6)nn45)nnc3s2)cc1
> 100 µM (inactive)
Cc1ccc(S(=O)(=O)N2CCCSCCSCCCSCC2)cc1
> 100 µM (inactive)
C=CCNS(=O)(=O)c1ncnc2[nH]cnc12
> 100 µM (inactive)

# next compound below
Req: Look up and report measured GI50 for this entry: CCC1OC2C(CC=C(C)C)=C3OC(C)(O)C(C)(CC)C(=O)C3=C3OC(=O)C=C1C32 (stereo not given)
Resp: 28.4 µM (inactive)

----------
Recorded GI50 values for a group of compounds are listed next.
Test system: PC-3
Experiment: NCI tumour cell line growth inhibition, 48 h
Calls of active or inactive are those of the source. Cut-off read from the data, not from the text of the source: active = GI50 up to about 1.1 µM and inactive = higher.

Observe how each entry below is paired with its result.
COc1cccc(C(NC2=NCCC=N2)c2cc3c(cc2O)OCO3)c1O (stereo unspecified)
29.1 µM (inactive)
COc1ccc2c(c1)CCN=C2Cc1ccccc1CCCl
25.8 µM (inactive)
CC1=CCCC2C1(C)CCC(C)C2(C)Cc1cc(O)ccc1O (stereo unspecified)
5.75 µM (inactive)
NC(CCP(=O)(O)O)C(=O)O (stereo unspecified)
> 100 µM (inactive)
Cc1cc(S(=O)(=O)n2ccnc2O)c(SCCCN(C)C)cc1Cl
> 100 µM (inactive)

Req: Look up and report measured GI50 for this entry: CC(C)(C)C(=O)C(N)C(=O)C(C)(C)C
Resp: > 100 µM (inactive)
